Target: MMP-2 (Homo sapiens, UniProt P08253)
Construct: made in house; provided by Dr. Gregory Goldberg, Washington University
Sequence (P08253 110-660): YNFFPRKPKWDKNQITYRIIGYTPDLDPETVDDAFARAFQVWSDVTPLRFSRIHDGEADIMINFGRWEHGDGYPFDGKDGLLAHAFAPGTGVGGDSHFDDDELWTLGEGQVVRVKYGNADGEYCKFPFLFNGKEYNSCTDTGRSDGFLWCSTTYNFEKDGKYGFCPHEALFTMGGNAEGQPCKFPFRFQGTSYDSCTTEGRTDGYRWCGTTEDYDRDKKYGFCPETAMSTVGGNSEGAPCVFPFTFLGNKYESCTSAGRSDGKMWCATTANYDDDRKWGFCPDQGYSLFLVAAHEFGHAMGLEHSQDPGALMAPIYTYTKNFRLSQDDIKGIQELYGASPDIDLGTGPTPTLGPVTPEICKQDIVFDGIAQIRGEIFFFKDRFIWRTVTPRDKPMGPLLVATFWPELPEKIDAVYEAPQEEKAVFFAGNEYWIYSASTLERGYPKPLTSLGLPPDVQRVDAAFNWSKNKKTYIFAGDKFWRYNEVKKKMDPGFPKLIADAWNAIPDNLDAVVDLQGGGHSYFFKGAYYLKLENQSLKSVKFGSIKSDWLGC
Assay: biochemical
Conditions: read-out: MMP-2 IC50
REPORTED_METRIC: pIC50
pIC50 here is simply -log10 of the concentration when that concentration is written in mol/L.

Solved cases (2 shown):
• O=C(C1CCN(c2ccc(S(=O)(=O)C3(C(=O)NO)CCOCC3)cc2)CC1)N1CCN(c2ccc(F)cc2F)CC1 = 5.68
• O=C(C1CCN(c2ccc(S(=O)(=O)C3(C(=O)NO)CCOCC3)cc2)CC1)N1CCN(c2nccc(C(F)(F)F)n2)CC1 = 5.19

Find the measured pIC50 of `O=C(C1CCN(c2ccc(S(=O)(=O)C3(C(=O)NO)CCOCC3)cc2)CC1)N1CCN(c2ccc(C(F)(F)F)cc2[N+](=O)[O-])CC1` and report it. 6.10

Find the measured pIC50 of `CCOc1ccccc1N1CCN(C(=O)C2CCN(c3ccc(S(=O)(=O)C4(C(=O)NO)CCOCC4)cc3)CC2)CC1` and report it. 5.35

----------
Recorded log10 of IC50 values for a group of molecules are listed next.
Target: MMP-2 (Homo sapiens, UniProt P08253)
Construct: made in house; provided by Dr. Gregory Goldberg, Washington University
Assay: biochemical
Conditions: recombinant human MMP-2, MCA peptide substrate 4 μM, pH 7.5, room temperature; read-out: MMP-2 IC50
Description: The compounds prepared in the manner described in the Examples above were assayed for activity by an in vitro assay. […] Briefly, 4-aminophenylmercuric acetate (APMA) or trypsin-activated MMPs were incubated with various concentrations of the inhibitor compound at room temperature for 5 minutes. […] Inhibition was measured as a reduction in fluorescent intensity as a function of inhibitor concentration, using a Perkin Elmer L550 plate reader. The IC50 values were calculated from those values. […]
Reminder: these figures are log10 of reported IC50, in nM before transformation.

* O=C(c1ccc(OC(F)(F)F)cc1)C1CCN(c2ccc(S(=O)(=O)C3(C(=O)NO)CCOCC3)cc2)CC1 | 2.40
* O=C(CN1CCNCC1)N1CCC(C(=O)NO)(S(=O)(=O)c2ccc(Oc3ccc(C(F)(F)F)cc3)cc2)CC1 | -0.40
* O=C(NO)C1(S(=O)(=O)c2ccc(Oc3ccc(OC(F)(F)F)cc3)cc2)CCN(C(=S)Nc2cccnc2)CC1 | -0.70
* O=C(NO)C1(S(=O)(=O)c2ccc(N3CCCCC3)cc2)CCOCC1 | 2.11
* O=C(NO)C1(S(=O)(=O)c2ccc(N3CCC(CCOCc4ccc(Cl)c(Cl)c4)CC3)cc2)CCOCC1 | 1.80
* N#Cc1ccccc1COC1CCN(c2ccc(S(=O)(=O)C3(C(=O)NO)CCOCC3)cc2)CC1 | 1.90
* O=C(NO)C1(S(=O)(=O)c2ccc(N3CCCC(COCc4ccccc4)C3)cc2)CCOCC1 (centres unmarked) | 2.34

Kindly consider the entry below.
Find the measured log10 of IC50 of `O=C(NO)C1(S(=O)(=O)c2ccc(Oc3ccc(OC(F)(F)F)cc3)cc2)CCSCC1` and report it. -0.70

----------
Target: MMP-2 (Homo sapiens)
Construct: made in house; provided by Dr. Gregory Goldberg, Washington University
Assay: biochemical
Settings: recombinant human MMP-2, MCA peptide substrate 4 μM, pH 7.5, room temperature; read-out: MMP-2 IC50
Recorded pIC50 values for a group of molecules are listed next.
pIC50 here is simply -log10 of the concentration when that concentration is written in mol/L.

Solved cases (2 shown):
• O=C(NO)C1(S(=O)(=O)c2ccc(N3CCN(c4ccc(Cl)cc4)CC3)cc2)CCOCC1 = 8.43
• Cc1ccc(N2CCN(c3ccc(S(=O)(=O)C4(C(=O)NO)CCOCC4)cc3)CC2)cc1 = 7.46

Give pIC50 for this entry on MMP-2 (Homo sapiens): `O=C(NO)C1(S(=O)(=O)c2ccc(Oc3ccc(OC(F)(F)F)cc3)cc2)CCN(Cc2cc(Cl)cc(Cl)c2)CC1` 9.10

Give pIC50 for this entry on MMP-2 (Homo sapiens): `COCCc1ccc(OC2CCN(c3ccc(S(=O)(=O)C4(C(=O)NO)CCOCC4)cc3)CC2)cc1` 8.92

Give pIC50 for this entry on MMP-2 (Homo sapiens): `O=C(NO)C1(S(=O)(=O)c2ccc(N3CC[C@@H](OCc4ccccc4)C3)cc2)CCOCC1` 7.22

Give pIC50 for this entry on MMP-2 (Homo sapiens): `CCCCOc1ccc(NC(=O)OC2CCN(c3ccc(S(=O)(=O)C4(C(=O)NO)CCOCC4)cc3)CC2)cc1` 6.46

Give pIC50 for this entry on MMP-2 (Homo sapiens): CC1CN(c2ccc(S(=O)(=O)C3(C(=O)NO)CCOCC3)cc2)CCN1c1ccccc1 (stereo not shown) 6.10

----------
Molecular target: MMP-2 (Homo sapiens, UniProt P08253)
Construct: made in house; provided by Dr. Gregory Goldberg, Washington University
Sequence (P08253 110-660): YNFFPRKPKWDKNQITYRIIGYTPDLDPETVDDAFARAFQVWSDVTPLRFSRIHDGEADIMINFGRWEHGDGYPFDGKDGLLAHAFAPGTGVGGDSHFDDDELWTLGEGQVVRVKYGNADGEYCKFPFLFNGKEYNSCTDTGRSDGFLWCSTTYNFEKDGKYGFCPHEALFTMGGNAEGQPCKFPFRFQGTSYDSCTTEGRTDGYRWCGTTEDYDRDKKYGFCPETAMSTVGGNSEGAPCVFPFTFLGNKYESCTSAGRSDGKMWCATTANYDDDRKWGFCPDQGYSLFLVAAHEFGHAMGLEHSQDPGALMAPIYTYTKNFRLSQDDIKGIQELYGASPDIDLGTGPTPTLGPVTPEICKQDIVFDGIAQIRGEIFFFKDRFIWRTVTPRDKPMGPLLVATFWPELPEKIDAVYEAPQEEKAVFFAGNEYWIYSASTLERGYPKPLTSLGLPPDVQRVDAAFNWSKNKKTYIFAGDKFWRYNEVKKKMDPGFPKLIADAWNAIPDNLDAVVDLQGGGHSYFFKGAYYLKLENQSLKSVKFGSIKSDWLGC
Assay: biochemical
Conditions: recombinant human MMP-2, MCA peptide substrate 4 μM, pH 7.5, room temperature; read-out: MMP-2 IC50
Flag rule - IC50 less than 0.1 µM flags Condition met; the remaining entries get Condition not met.

# example entries with known answers
- C[C@@H]1C[C@H](C)CN(C(=O)C2CCN(c3ccc(S(=O)(=O)C4(C(=O)NO)CCN(C(=O)CCl)CC4)cc3)CC2)C1: Condition not met
- O=C(c1cccc(F)c1)C1CCN(c2ccc(S(=O)(=O)C3(C(=O)NO)CCOCC3)cc2)CC1: Condition not met
- CS(=O)(=O)N1CCC(C(=O)NO)(S(=O)(=O)c2ccc(Oc3ccc(OC(F)(F)F)cc3)cc2)CC1: Condition met

Item `O=C(NO)C1(S(=O)(=O)c2ccc(N3CCN(S(=O)(=O)c4cccc(C(F)(F)F)c4)CC3)cc2)CCOCC1` : IC50 beneath 0.1 µM, strictly? Condition met

Item `O=C(NO)C1(S(=O)(=O)c2ccc(Oc3ccc(OC(F)(F)F)cc3)cc2)CCN(S(=O)(=O)c2cccc(C(F)(F)F)c2)CC1` : IC50 beneath 0.1 µM, strictly? Condition met

Item `O=C(c1cc(F)cc(F)c1)C1CCN(c2ccc(S(=O)(=O)C3(C(=O)NO)CCOCC3)cc2)CC1` : IC50 beneath 0.1 µM, strictly? Condition not met

Item `O=C(NO)C1(S(=O)(=O)c2ccc(N3CCC(CCOCc4cccc(C(F)(F)F)c4)CC3)cc2)CCOCC1` : IC50 beneath 0.1 µM, strictly? Condition met

----------
Target: MMP-13 (Homo sapiens, UniProt P45452)
Construct: made in house; host or cells: baculovirus / insect cells
Test: biochemical
Conditions: recombinant human MMP-13, MCA peptide substrate 4 μM, pH 7.5, room temperature; read-out: MMP-13 IC50
REPORTED_METRIC: IC50 (nM)
Write the value in nM as a bare number.

* O=C(NO)C1(S(=O)(=O)c2ccc(N3CCC(OCc4ccc(COCC(F)(F)C(F)(F)C(F)(F)F)cc4)CC3)cc2)CCOCC1 | 30.6
* CN(C)CCN(C)CC(=O)N1CCC(C(=O)NO)(S(=O)(=O)c2ccc(Oc3ccc(C(F)(F)F)cc3)cc2)CC1 | 1.3
* CC1CC(C)CN(C(=O)C2CCN(c3ccc(S(=O)(=O)C4(C(=O)NO)CCN(C(=O)CN5CCN(C)CC5)CC4)cc3)CC2)C1 (stereo not shown) | 35

Kindly consider the entry below.
Find the measured IC50 of O=C(NO)C1(S(=O)(=O)c2ccc(OC3CCC(OCc4ccccc4Cl)C3)cc2)CCOCC1 (stereo not shown) [Example 665] and report it. 2.3
